- procedure summary: In vitro PAR transport across harvested intestinal segments, EasyMount Ussing System: jejunum
- Format: in vitro ADME
- condition notes: rat, jejunum M-to-S; 15 mg/ml PAR; Sodium Decanoate in mucosal 1 mg/ml (equilibrated)
Structures can show the parent of a compound that is named as a salt.
property: Papp at 15 mg/ml

Query string: For the compound NC[C@@H]1O[C@H](O[C@H]2[C@@H](O)[C@H](O[C@@H]3[C@@H](O)[C@H](N)C[C@H](N)[C@H]3O[C@H]3O[C@H](CO)[C@@H](O)[C@H](O)[C@H]3N)O[C@@H]2CO)[C@H](N)[C@@H](O)[C@@H]1O [PAR, Paromomycin sulfate] , what Papp at 15 mg/ml is on record?
Result string: 4.4 ×10⁻⁶ cm/s
